run_description: Hydrophilicity-hydrophobicity coefficient from water activity value of 20% aqueous solution (equation (A))
Assay type: physicochemical
settings: 20% aqueous solution; water activity by chilled mirror dew point method (AquaLab CX-3TE) at 25° C.; equation (A)
result_type: Hydrophilicity-hydrophobicity coefficient

Check out these entries, answers already filled in.
CC(O)CC(C)O (stereo not drawn) [2,4-Pentanediol]: 0.86
O=C1NCCN1 [Ethylene urea]: 0.30
CCC(O)CO (stereo not drawn) [1,2-Butanediol]: 0.90
OCCCCCCO [1,6-Hexanediol]: 0.76
NC(N)=O [Urea]: 0.20

A: OCCCCCCCO [1,7-Heptanediol]
B: OCCCCC(O)CO (stereo not drawn) [1,2,6-Hexanetriol]
Q: When their Hydrophilicity-hydrophobicity coefficient values are compared, which is larger, A or B ? Use the label to indicate which entry you chose.
Ans: A

a: CCCC(O)CO (stereo not drawn) [1,2-Pentanediol]
b: OCC(O)CO [Glycerin]
Q: API: POST /compare with a and b ; response names the item with higher Hydrophilicity-hydrophobicity coefficient. Write down the label attached to your selection.
Ans: a
